Origin of values: the supplement of paper PMC10567573

B1: ETS1 (parent)
chain: FSEPSFITESYQTLHPISSEELLS

- Variants of: B1
- Test Protocol: protein stability index of a GFP-peptide fusion (GPS, HEK-293T) (PSI 1-6); higher = more stable;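 further: lentivirally expressed fusions sorted by FACS into six bins by GFP to DsRed ratio, PSI derived from sequencing read proportions per bin multiplied by bin number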
- Run Parameters: c terminus: a fixed tail appended
Measurement Name: protein stability index
Format: numeric value only, no unit, no commentary.

>  <Variant String>
P16E

>  <Measurement Name>
protein stability index

>  <Reported Result>
1.95

$$$$

INPUT: Which measured protein stability index value corresponds to S24N ?
OUTPUT: 1.79

INPUT: Same question, E9V this time
OUTPUT: 2.05

INPUT: Further, for S2Q ?
OUTPUT: 1.65

INPUT: Then what about the variant S5I ?
OUTPUT: 1.48

INPUT: Quick one: T8Y
OUTPUT: 2.17

INPUT: Follow-up item: E20T
OUTPUT: 2.08

INPUT: # iterate: I7Y
OUTPUT: 2.82
